- Tested On: human LXRα-LBD (Homo sapiens)
- Construct: Purified human LXRα-LBD (GST)
- Sequence (Q13133 209-447 limits assumed): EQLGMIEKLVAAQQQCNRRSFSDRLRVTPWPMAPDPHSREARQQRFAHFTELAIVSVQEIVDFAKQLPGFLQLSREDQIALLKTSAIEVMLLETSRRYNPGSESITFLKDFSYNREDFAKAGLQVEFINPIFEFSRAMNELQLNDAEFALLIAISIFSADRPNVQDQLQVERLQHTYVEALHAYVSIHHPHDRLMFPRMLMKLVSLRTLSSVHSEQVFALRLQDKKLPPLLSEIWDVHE
- Method Summary: Lantha Screen TR-FRET NR-cofactor peptide interaction assay
Reported Property: IC50 (µM)
Give bare numbers, in µM.

>  <Compound>
Cc1cc(C)c(S(=O)(=O)N2Cc3ccc(-c4cccc(S(C)(=O)=O)c4)cc3CC2C(=O)NCCc2cccc(C#N)c2)c(C)c1 (stereo not drawn)

>  <Units Label>
µM

>  <Numeric Value>
2.1

$$$$
>  <Compound>
COC(=O)C1Cc2cc(-c3cccc(S(C)(=O)=O)c3)ccc2CN1S(=O)(=O)c1c(C)cc(C)cc1C (stereo not drawn)

>  <Units Label>
µM

>  <Numeric Value>
5

$$$$

Shifting focus to the compound that follows.
Input: Look up IC50: O=C(Nc1ccc2cc(Br)ccc2n1)c1cccc(Cl)c1
Output: 5.2
